Reference source for all entries: patent US11339130B1

targetOfAssay: Human Calpain 9/NS1 (Homo sapiens, UniProt O14815)
Sequence (O14815 whole entry): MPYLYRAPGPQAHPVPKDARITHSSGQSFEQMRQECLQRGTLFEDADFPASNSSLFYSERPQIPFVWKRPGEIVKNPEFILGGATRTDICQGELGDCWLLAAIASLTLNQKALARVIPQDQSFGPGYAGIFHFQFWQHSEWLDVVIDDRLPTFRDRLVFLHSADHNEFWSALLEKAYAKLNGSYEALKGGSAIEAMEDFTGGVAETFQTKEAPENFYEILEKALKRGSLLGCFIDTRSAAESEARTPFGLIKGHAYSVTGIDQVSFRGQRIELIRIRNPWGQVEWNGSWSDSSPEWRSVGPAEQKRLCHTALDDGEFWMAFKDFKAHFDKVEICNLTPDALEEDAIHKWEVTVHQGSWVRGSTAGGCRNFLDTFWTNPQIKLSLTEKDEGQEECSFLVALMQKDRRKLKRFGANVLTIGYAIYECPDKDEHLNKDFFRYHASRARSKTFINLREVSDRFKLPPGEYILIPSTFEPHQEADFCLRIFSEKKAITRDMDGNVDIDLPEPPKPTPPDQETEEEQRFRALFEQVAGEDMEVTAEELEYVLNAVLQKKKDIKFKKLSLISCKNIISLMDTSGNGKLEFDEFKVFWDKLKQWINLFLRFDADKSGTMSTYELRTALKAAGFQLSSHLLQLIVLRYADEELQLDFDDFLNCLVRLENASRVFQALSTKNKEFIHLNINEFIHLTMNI
Sequence (P04632 whole entry partner): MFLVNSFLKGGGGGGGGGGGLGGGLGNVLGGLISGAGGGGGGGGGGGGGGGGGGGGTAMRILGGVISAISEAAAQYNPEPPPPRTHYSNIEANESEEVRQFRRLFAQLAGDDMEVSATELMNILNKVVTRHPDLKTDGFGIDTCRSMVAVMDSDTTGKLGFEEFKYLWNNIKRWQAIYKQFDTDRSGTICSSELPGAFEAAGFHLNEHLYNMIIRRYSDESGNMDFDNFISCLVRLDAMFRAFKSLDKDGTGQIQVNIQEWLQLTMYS
testName: Calpain inhibition continuous fluorescence (FRET) assay, Human Calpain 9/NS1
Type: biochemical
runConditions: Column C; read-out: Human Calpain 9/NS1 IC50
pIC50: −log10 of the molar value.
valueKind: pIC50

O=C[C@H](Cc1ccccc1)NC(=O)c1cncn1-c1ccn(-c2ccccc2)n1 ... > 5.52
Cn1ncc(C(=O)N[C@@H](Cc2ccccc2)C(=O)C(N)=O)c1-c1cncnc1 ... > 5.52
Cn1cc(C(=O)N[C@@H](Cc2ccccc2)C(=O)C(N)=O)c(-c2cccc(OC(F)(F)F)c2)n1 ... > 5.52

Lookup: Please report the measured pIC50 for Cc1cccc(-c2cccc(-n3nc(C)cc3C(=O)N[C@@H](Cc3ccccc3)C(=O)C(N)=O)c2)c1
Found: > 5.52

Lookup: Consider the compound NC(=O)C(=O)[C@H](Cc1ccccc1)NC(=O)c1cncn1-c1ccc(-c2ncco2)cn1 . State its measured pIC50.
Found: > 5.52

Lookup: Could you please provide reported pIC50 for Cc1noc(-c2ccccc2)c1C(=O)N[C@@H](Cc1ccccc1)C(=O)C(=O)NC1CC1 ? Thanks!
Found: > 5.52

Lookup: Look up pIC50 of O=C(NC1CC1)C(=O)[C@H](Cc1ccccc1)NC(=O)c1cncn1-c1ccn(-c2ccccc2)n1 and report it.
Found: < 5.00

Lookup: Given NC(=O)C(=O)[C@H](Cc1ccccc1)NC(=O)c1cncn1-c1ccccc1 , respond with its pIC50.
Found: > 5.52

Lookup: Check the records and state pIC50 for NC(=O)C(=O)[C@H](Cc1ccccc1)NC(=O)c1cn(C2CC2)nc1-c1ccccc1
Found: > 5.52

Lookup: Consider the compound NC(=O)C(=O)[C@H](Cc1ccccc1)NC(=O)c1nsnc1-c1ccccc1 . State its measured pIC50.
Found: > 5.52

Lookup: Identify measured pIC50 corresponding to Cc1noc(-c2ccccc2)c1C(=O)N[C@@H](Cc1ccc(F)cc1)C(=O)C(N)=O
Found: > 5.52

Lookup: Dear colleague, please send me the reported pIC50 for NC(=O)C(=O)[C@H](Cc1ccccc1)NC(=O)c1c(Cl)ncn1-c1ccccc1 when you can.
Found: > 5.52

Lookup: Report pIC50 for Cc1cc(C(=O)N[C@@H](Cc2ccccc2)C(=O)C(N)=O)n(-c2ncccn2)n1 [Compound 49]
Found: > 5.52

Lookup: Indicate its recorded pIC50; the compound in question is Cc1noc(-n2ccc(-c3ccccc3)n2)c1C(=O)N[C@@H](Cc1ccccc1)C(=O)C(N)=O
Found: > 5.52

Lookup: Let me know recorded pIC50 for NC(=O)C(=O)[C@H](Cc1ccccc1)NC(=O)c1ncoc1-c1ccccc1 , thanks.
Found: > 5.52
